target or system: SIK3 (Homo sapiens, UniProt Q9Y2K2)
Sequence (Q9Y2K2 whole entry): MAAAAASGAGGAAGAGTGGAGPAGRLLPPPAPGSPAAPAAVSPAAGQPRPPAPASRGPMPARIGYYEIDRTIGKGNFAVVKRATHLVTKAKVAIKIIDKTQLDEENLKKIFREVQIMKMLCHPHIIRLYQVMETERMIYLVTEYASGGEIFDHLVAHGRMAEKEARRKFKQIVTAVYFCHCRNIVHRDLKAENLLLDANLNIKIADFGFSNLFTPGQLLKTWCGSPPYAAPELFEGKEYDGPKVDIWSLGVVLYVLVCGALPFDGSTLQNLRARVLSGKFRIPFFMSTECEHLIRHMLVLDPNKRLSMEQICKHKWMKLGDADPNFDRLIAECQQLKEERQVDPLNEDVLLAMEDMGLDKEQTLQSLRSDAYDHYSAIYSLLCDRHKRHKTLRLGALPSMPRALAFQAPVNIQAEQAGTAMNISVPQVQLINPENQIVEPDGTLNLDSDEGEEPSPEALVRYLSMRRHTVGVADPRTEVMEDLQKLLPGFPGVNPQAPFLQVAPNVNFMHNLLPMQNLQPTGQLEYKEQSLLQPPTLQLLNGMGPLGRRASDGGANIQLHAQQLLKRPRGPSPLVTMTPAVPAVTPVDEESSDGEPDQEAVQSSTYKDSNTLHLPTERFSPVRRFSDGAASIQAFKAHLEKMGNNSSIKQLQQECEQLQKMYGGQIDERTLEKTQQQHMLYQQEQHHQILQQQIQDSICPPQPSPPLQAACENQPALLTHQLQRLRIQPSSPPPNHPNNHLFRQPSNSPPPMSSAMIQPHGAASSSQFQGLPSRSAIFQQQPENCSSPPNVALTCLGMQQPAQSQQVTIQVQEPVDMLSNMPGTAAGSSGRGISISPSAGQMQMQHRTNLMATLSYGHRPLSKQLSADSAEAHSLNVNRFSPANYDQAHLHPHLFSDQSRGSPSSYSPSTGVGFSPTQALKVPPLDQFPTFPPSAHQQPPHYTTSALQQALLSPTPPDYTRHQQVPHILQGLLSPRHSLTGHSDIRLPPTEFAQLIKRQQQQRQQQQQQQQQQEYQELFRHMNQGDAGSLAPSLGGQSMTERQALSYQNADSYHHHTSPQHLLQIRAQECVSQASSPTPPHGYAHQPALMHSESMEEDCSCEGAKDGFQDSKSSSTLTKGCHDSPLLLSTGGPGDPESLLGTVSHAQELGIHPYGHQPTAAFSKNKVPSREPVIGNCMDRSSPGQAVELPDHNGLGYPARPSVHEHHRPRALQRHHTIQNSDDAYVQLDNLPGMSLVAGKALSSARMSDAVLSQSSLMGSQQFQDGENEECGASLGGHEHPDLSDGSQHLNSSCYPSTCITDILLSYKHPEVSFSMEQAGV
pIC50: −log10 of the molar value.
endpoint name: pIC50

Cc1cc(C#N)nn1-c1nc(-n2cnc3cc(Nc4ccn(C)c(=O)n4)ccc32)ccc1C(C)O (stereo not shown): 8.11
Cc1ccc(Nc2ccc3c(c2)ncn3-c2ccc(C(C)O)c(-n3cc(C#N)c(C)n3)n2)nn1 (stereo not shown): 7.59
COCCn1cc(-c2nc(-n3cnc4cc(Nc5ccc(C)nn5)ccc43)ccc2C(C)O)c(C)n1 (stereo not shown): 8.77
Cc1ccc(Nc2ccc3c(c2)ncn3-c2ccc(C(O)C(F)(F)F)c(-n3nc(C#N)cc3C)n2)nn1 (stereo not shown): 8.92
Cc1cc(C(F)F)nn1-c1nc(-n2cnc3cc(N4C[C@H]5OCCN(C)[C@H]5C4)ccc32)ccc1CO: 7.19
Cc1ccc(Nc2ccc3ncn(-c4ccc(C(C)O)c(N5CC[C@@H](C#N)C5)n4)c3c2)nn1 (stereo partly shown): 8.60
Cc1ccc(Nc2cc3c(cc2OCCN2CCOCC2)ncn3-c2ccc(C(C)O)c(-n3nc(C#N)cc3C)n2)cn1 (stereo not shown): 8.52

* * *

Quick reference for IC50 among some molecules
target or system: SIK2 (Homo sapiens, UniProt Q9H0K1)
Sequence (Q9H0K1 whole entry): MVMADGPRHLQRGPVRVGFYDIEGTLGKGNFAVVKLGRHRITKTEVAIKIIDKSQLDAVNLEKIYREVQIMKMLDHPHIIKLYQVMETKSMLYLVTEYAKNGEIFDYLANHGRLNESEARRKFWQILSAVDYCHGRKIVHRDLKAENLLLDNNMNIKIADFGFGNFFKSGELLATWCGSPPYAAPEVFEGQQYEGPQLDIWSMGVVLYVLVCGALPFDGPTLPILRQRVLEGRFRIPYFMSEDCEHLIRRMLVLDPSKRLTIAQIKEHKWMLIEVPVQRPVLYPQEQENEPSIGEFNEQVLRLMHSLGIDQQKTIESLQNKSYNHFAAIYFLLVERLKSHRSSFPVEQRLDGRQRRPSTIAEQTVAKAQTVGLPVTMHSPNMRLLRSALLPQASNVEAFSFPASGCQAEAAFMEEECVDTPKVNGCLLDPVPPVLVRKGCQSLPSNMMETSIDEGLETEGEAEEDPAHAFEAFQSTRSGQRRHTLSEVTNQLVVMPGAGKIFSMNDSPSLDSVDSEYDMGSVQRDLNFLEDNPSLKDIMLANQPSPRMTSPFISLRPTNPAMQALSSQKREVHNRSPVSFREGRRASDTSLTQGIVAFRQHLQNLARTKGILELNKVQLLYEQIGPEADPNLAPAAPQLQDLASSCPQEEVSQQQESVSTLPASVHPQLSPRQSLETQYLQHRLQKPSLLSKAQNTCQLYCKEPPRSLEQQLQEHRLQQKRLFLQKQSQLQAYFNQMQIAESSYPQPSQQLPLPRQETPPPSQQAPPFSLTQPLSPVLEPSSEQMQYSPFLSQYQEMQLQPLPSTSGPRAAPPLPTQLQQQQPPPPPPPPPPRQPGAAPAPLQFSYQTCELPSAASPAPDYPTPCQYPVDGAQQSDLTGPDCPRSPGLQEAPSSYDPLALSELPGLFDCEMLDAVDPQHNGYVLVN
endpoint name: IC50 (nM)

COc1cc(Cl)nnc1Nc1ccc2c(c1)ncn2-c1ccc(C(C)O)c(-n2nc(C#N)cc2C)n1 (stereo not shown): 1.8
Cc1ccc(Nc2cc3ncn(-c4ccc(C(C)O)c(-n5nc(OC(F)F)cc5C)n4)c3cc2OC2COC2)nn1 (stereo not shown): 1
COc1cc2c(cc1Nc1cnc(C)nc1)ncn2-c1ccc([C@H](C)O)c(-n2nc(OC(F)F)cc2C)n1: 0.6
Cc1ccc(Oc2ccc3c(c2)ncn3-c2ccc(C(C)O)c(-n3nc(C#N)cc3C)n2)nn1 (stereo not shown): 38.4
Cc1ccc(Nc2cc3c(cc2CC2COC2)ncn3-c2ccc(C(C)O)c(-n3nc(OC(F)F)cc3C)n2)nn1 (stereo not shown): 13.4
Cc1ccc(Nc2ccc3ncn(-c4ccc(C(C)O)c(N5CC[C@@H]6NCC[C@H]65)n4)c3c2)nn1 (stereo partly shown): 863
Cc1ccc(Nc2ccc3c(c2)ncn3-c2ccc(C(C)O)c(-c3cnn(CC(F)(F)F)c3C)n2)nn1 (stereo not shown): 0.3

* * *

target or system: UniProtKB P57059
Sequence (P57059 whole entry): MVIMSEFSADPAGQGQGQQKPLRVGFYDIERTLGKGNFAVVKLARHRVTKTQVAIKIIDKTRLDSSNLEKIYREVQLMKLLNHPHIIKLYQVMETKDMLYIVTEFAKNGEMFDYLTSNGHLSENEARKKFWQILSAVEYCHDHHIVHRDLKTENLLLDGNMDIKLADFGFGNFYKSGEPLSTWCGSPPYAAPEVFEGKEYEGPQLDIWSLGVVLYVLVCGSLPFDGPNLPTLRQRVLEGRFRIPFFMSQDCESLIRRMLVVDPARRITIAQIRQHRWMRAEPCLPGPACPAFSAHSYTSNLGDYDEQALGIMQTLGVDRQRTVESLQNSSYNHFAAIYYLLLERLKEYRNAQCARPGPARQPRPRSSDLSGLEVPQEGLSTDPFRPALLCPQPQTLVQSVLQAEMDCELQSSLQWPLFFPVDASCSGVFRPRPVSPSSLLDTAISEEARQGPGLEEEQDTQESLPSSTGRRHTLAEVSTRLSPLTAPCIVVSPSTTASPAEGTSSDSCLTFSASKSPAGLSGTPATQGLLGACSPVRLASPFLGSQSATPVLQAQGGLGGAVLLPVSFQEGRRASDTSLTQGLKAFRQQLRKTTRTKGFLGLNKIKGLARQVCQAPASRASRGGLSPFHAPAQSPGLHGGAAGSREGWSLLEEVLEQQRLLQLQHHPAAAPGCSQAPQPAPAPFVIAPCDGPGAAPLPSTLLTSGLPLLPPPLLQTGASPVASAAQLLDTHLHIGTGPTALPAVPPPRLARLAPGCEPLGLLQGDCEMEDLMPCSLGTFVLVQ
Classify: yes when IC50 is strictly less than 800 nM; no when IC50 is not.

Cc1cc(-c2nc(-n3cnc4cc(Nc5ccc(C)nn5)ccc43)ccc2C(C)O)cnn1 (stereo not shown): no
Cc1ccc(Nc2ccc3c(c2)ncn3-c2ccc(C(C)O)c(N3CC(C)(C#N)C3)n2)nn1 (stereo not shown): no
COc1cc2c(cc1Nc1ccc(C)nn1)ncn2-c1ccc(C(C)O)c(-n2nc(C#N)cc2C)n1 (stereo not shown): yes
COc1cc2ncn(-c3ccc(C(C)O)c(-c4cccc(Cl)c4F)n3)c2cc1OC (stereo not shown): yes
CCn1ncc(-c2nc(-n3cnc4cc(Nc5ccc(C)nn5)ccc43)ccc2C(C)O)c1C (stereo not shown): no
COc1cc2ncn(-c3ccc([C@@H](C)O)c(-c4ccn(C)c(=O)c4)n3)c2cc1OC: no
Cc1ccc(Nc2ccc3c(c2)ncn3-c2ccc(C(C)O)c(-n3nc(C)cc3C#N)n2)nn1 (stereo not shown): yes
Cc1ccc(Nc2ccc3c(c2)ncn3-c2ccc(C(C)O)c(N3CCCS3(=O)=O)n2)nn1 (stereo not shown): no
Cc1cc(C#N)nn1-c1nc(-n2cnc3cc(-c4ccn(C)c(=O)n4)ccc32)ccc1C(C)O (stereo not shown): yes
Cc1ccc(Nc2ccc3c(c2)ncn3-c2ccc(C(C)O)c(O[C@H]3CCNC3)n2)nn1 (stereo partly shown): yes
Cc1ccc(Nc2ccc3ncn(-c4ccc(C(C)O)c(N5CCN(CC(F)(F)F)C(=O)C5)n4)c3c2)nn1 (stereo not shown): no
Cc1ccc(Nc2ccc3ncn(-c4ccc(CO)c(-n5nc(C#N)cc5C)n4)c3c2)nn1: yes
Cc1ccc(Nc2ccc3c(c2)ncn3-c2ccc(C(C)O)c(-n3nc(C)cc3C(F)F)n2)nn1 (stereo not shown): no
Cc1cc(C#N)nn1-c1nc(-n2cnc3cc(Nc4ccc(OCC(F)F)nn4)ccc32)ccc1C(C)O (stereo not shown): yes
Cc1cc(C#N)nn1-c1nc(-n2cnc3ccc(-c4ccn(C)c(=O)n4)cc32)ccc1C(C)O (stereo not shown): yes
Cc1ccc(-c2ccc3ncn(-c4ccc(C(C)O)c(-n5nc(C#N)cc5C)n4)c3c2)nn1 (stereo not shown): yes
Cc1ccc(Oc2ccc3c(c2)ncn3-c2ccc(C(C)O)c(-n3nc(C#N)cc3C)n2)nn1 (stereo not shown): no
COc1cc2ncn(-c3ccc(C(C)O)c(-n4ccc(C(F)(F)F)n4)n3)c2cc1OC (stereo not shown): yes
Cc1ccc(Nc2ccc3c(c2)ncn3-c2ccc(C(C)O)c(-n3nc(C#N)cc3C)n2)cn1 (stereo not shown): yes
COC1CN(C(=O)c2ccc(Nc3ccc4c(c3)ncn4-c3ccc(C(C)O)c(-n4nc(C#N)cc4C)n3)nn2)C1 (stereo not shown): yes
Cc1ncc(Nc2ccc3c(c2)ncn3-c2ccc(C(C)O)c(-n3nc(C#N)cc3C)n2)cn1 (stereo not shown): yes
CC(O)c1ccc(-n2cnc3cc(OCCN4CCOCC4)ccc32)nc1Oc1ccccc1 (stereo not shown): no
CCC(O)c1ccc(-n2cnc3cc(OC)c(OC)cc32)nc1-c1ccc(F)cc1OC (stereo not shown): no
Cc1ccc(Nc2ccc3c(c2)ncn3-c2ccc(C(C)O)c(-c3cc(C4CC4)ncc3C)n2)nn1 (stereo not shown): yes
Cc1cc(C(=O)N(C)C)c(Nc2ccc3c(c2)ncn3-c2ccc(CO)c(-n3nc(C(F)F)cc3C(F)F)n2)nn1: no
Cc1nn(CC(F)(F)F)cc1-c1nc(-n2cnc3cc(Oc4ccc(CN5CCOCC5)nn4)ccc32)ccc1C(C)O (stereo not shown): no
Cc1nn(CC(F)(F)F)cc1-c1nc(-n2cnc3cc(Oc4ccc(CN5CCN(C)CC5)nn4)ccc32)ccc1C(C)O (stereo not shown): no
Cc1cc(C#N)nn1-c1nc(-n2cnc3cc(Nc4ccon4)ccc32)ccc1C(C)O (stereo not shown): yes
Cc1ccc(Nc2ccc3ncn(-c4ccc(C(C)O)c(-n5cc(C)c(C#N)n5)n4)c3c2)nn1 (stereo not shown): yes
Cc1ccc(Nc2cc3ncn(-c4ccc([C@H](C)O)c(-n5nc(OC(F)F)cc5C)n4)c3cc2OC2COC2)nn1: yes
